Values from PubChem BioAssay (NCI)

The entries below come with measured growth inhibition values attached.
- assaySummary: NCI Yeast Anticancer Drug Screen. Data for the wt2 strain (AID 169);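 also: 0% = growth of vehicle-treated yeast cultures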
- conditionsUsed: S. cerevisiae wt2 strain growth inhibition; at 3.7 µM; stronger effect = higher value
This is part of a sample that, as a whole, favours compounds with a hit. Of some 79,000 tested, about 15% had one in any assay.
Give your result in % as a bare value.

>  <molecule>
COc1cc([C@@H]2c3cc4c(cc3C[C@@H]3COC(=O)C32)OCO4)cc(OC)c1O (some centres not stated)

>  <unitTag>
%

>  <growth inhibition>
10

$$$$
>  <molecule>
CC[C@@]1(O)C[C@H](OC2CC(N(C)C)C(O)C(C)O2)c2c(O)c3c(c(O)c2[C@H]1OC1CC(N(C)C)C(O)C(C)O1)C(=O)c1cccc(O)c1C3=O (some centres not stated)

>  <unitTag>
%

>  <growth inhibition>
-24

$$$$
>  <molecule>
O=C1c2ccc3ccccc3c2CCC1N1CCCCC1 (configuration not stated)

>  <unitTag>
%

>  <growth inhibition>
14

$$$$
>  <molecule>
CC1=C[C@H]2O[C@@H]3C[C@H]4OC(=O)/C=C\C=C\C(C(C)O)OCC(O)C(C)CC(=O)OC[C@@]2(C[C@@H]1O)[C@]4(C)[C@@]31CO1 (some centres not stated)

>  <unitTag>
%

>  <growth inhibition>
8

$$$$
>  <molecule>
CCC1(O)C(=O)OCc2c1cc1n(c2=O)Cc2cc3ccccc3nc2-1 (configuration not stated)

>  <unitTag>
%

>  <growth inhibition>
4

$$$$
>  <molecule>
S=C1NC2(CCCCC2)NC12CCCCC2

>  <unitTag>
%

>  <growth inhibition>
-2

$$$$

Entry CC1CN1C1=C(Cl)C(=O)C(N2CC2C)=C(Cl)C1=O (configuration not stated) has what growth inhibition?
3

Entry CCC1(OC(=O)CN)C(=O)OCc2c1cc1n(c2=O)Cc2cc3ccccc3nc2-1 (configuration not stated) has what growth inhibition?
4

Entry Nc1ccccc1C(=O)OCCc1ccccc1 has what growth inhibition?
-15
